- assayedTarget: monkey NPR1 (Macaca fascicularis)
- protocolDescription: Cellular cGMP production assay, monkey NPR1 expressing CHO-K1 cells (CisBio HTRF)
- Assay type: cell-based
- measurementParameters: cGMP production, monkey NPR1 CHO-K1 cells, 30 min at 37° C., 12-point dose-response from 30 μM; read-out: Monkey NPR1 AC50
- Procedure: Cellular cGMP is a major second messenger that mediates cell activities and is synthesized by activated NPR1 triggered by binding of the natural ligand ANP. […] The assay was performed according to manufacturer's instructions with minor deviations. […] The readout was performed using an Envision plate reader (PerkinElmer) with an excitation wavelength of 317 nm and an emission wavelength of 665 nm. cGMP concentration (Delta F [° %]) was calculated according to the following formulae: […]
assayReadout: AC50 (nM)
Report the figure in nM without appending any unit label.

Observe how each entry below is paired with its result.
CC[C@@H](Nc1nc2c(c(N[C@@H](CN3C[C@H]4CC[C@@H]3C4)c3cnn(CC)c3)n1)C[C@H](c1ccccc1)CC2)[C@H]1CC[C@H](C(=O)O)CC1; 411
CC[C@@H](Nc1nc2c(c(N[C@@H](CN3C4CC5CC(C4)CC3C5)c3cnn(C)c3)n1)C[C@H](c1ccccc1)CC2)[C@H]1CC[C@H](C(=O)O)CC1; 78
CC[C@H]([C@H]1CC[C@H](C(=O)O)CC1)N(C)c1nc2c(c(N[C@@H](CN3CCCC[C@@H]3CO)c3cnn(C)c3)n1)C[C@H](c1ccccc1)CC2; 1020
CC[C@@H](Nc1nc2c(c(N[C@@H](CN3CCC[C@H](C)C3)c3cnn(C(C)C)c3)n1)C[C@H](c1ccccc1)CC2)[C@H]1CC[C@H](C(=O)O)CC1; 74
CC[C@H]([C@H]1CC[C@H](CC(=O)O)CC1)N(C)c1nc2c(c(N[C@@H](CN3CCC[C@H](C)C3)c3cnn(C)c3)n1)C[C@H](c1cccc(F)c1)CC2; 102
CC[C@@H](N(C)c1nc2c(c(N[C@@H](CN3CCCCCC3)c3cnn(C)c3)n1)C[C@H](c1cccc(F)c1)CC2)C12CC(C(=O)O)(C1)C2; 10
CC[C@H](N(C)c1nc2c(c(N[C@@H](CN3CCC[C@H](CF)C3)c3cnn(C)c3)n1)C[C@](C)(c1ccccc1)CC2)C12CC(C(=O)O)(C1)C2; 158
CC[C@H]([C@H]1CC[C@H](C(=O)O)CC1)N(C)c1nc2c(c(N[C@@H](CN3CCC[C@H](CO)C3)c3cnn(C)c3)n1)C[C@H](c1cccc(F)c1)CC2; 137

Look up AC50 for this compound: `CC[C@@H](Nc1nc2c(c(N[C@@H](CN3CCCCCC3)c3cnn(CC)c3)n1)C[C@H](c1ccccc1)CC2)[C@H]1CC[C@H](C(=O)O)CC1` 226

Look up AC50 for this compound: CC[C@@H](Nc1nc2c(c(N[C@@H](CN3CC4CCC3C4)c3ccc(F)cc3)n1)C[C@H](c1ccccc1)CC2)[C@H]1CC[C@H](C(=O)O)CC1 (some centres unmarked) 192

Look up AC50 for this compound: `CC[C@@H](N(C)c1nc2c(c(N[C@@H](CN3CCC[C@H](C)C3)c3cc(C)nn3C)n1)C[C@H](c1ccccc1)CC2)C12CC(C(=O)O)(C1)C2` 499

====

- assayedTarget: monkey NPR1 (Macaca fascicularis, UniProt A0A7N9DBT9)
- Sequence (A0A7N9DBT9 entry or part of it): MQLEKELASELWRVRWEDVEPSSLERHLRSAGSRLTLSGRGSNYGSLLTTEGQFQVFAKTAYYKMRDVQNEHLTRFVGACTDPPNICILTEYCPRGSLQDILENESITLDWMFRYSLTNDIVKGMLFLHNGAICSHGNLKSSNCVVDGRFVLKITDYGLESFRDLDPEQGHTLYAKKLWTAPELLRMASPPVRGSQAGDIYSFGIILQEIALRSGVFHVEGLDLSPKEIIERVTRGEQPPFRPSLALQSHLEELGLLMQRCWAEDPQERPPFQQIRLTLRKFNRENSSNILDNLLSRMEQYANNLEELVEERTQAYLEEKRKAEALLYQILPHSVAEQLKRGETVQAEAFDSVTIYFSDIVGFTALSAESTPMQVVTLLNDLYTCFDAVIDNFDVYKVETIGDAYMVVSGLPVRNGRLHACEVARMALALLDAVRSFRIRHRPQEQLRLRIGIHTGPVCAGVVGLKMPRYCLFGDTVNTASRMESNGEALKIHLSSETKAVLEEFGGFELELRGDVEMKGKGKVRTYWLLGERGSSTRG
- protocolDescription: Cellular cGMP production assay, monkey NPR1 expressing CHO-K1 cells (CisBio HTRF)
- Type: cell-based
- measurementParameters: cGMP production, monkey NPR1 CHO-K1 cells, 30 min at 37° C., 12-point dose-response from 30 μM; read-out: Monkey NPR1 AC50
Measured AC50 by item
Report the figure in nM without appending any unit label.

Observe how each entry below is paired with its result.
CC[C@H]([C@H]1CC[C@H](C(=O)O)CC1)N(C)c1nc2c(c(N[C@@H](CN3CCC[C@H](C)C3)c3cnn(C)c3)n1)CN(c1cccc(F)c1)CC2; 406
CC[C@H]([C@H]1CC[C@H](C(=O)O)CC1)N(C)c1nc2c(c(N[C@H](c3cnn(C)c3)C(C)(C)N3CCCCC3)n1)C[C@H](c1ccccc1)CC2; 2580
CC[C@@H](Nc1nc2c(c(N[C@@H](CN3CCCCC3)c3cnn(CC)c3)n1)C[C@H](c1cccc(F)c1)CC2)[C@H]1CC[C@H](C(=O)O)CC1; 77

Look up AC50 for this compound: `CC[C@@H](Nc1nc2c(c(N[C@@H](CN3CCCC[C@@H]3C)c3cnn(C)c3)n1)C[C@H](c1ccccc1)CC2)[C@H]1CC[C@H](C(=O)O)CC1` 377

====

- assayedTarget: human NPR1 (Homo sapiens)
- Construct: host or cells: CHO-K1
- protocolDescription: Cellular cGMP production assay, human NPR1 expressing CHO-K1 cells (CisBio HTRF)
- Format: cell-based
- measurementParameters: cGMP production, 30 min at 37° C., 12-point dose-response from 30 μM
Measured AC50 by item
Report the figure in nM without appending any unit label.

Observe how each entry below is paired with its result.
CC[C@H]([C@H]1CC[C@H](C(=O)O)CC1)N(C)c1nc2c(c(N[C@@H](CN3CCC[C@H](CO)C3)c3cnn(C)c3)n1)C[C@H](c1cccc(F)c1)CC2 [Compound 72]; 242
CC[C@H]([C@H]1CC[C@H](C(=O)O)CC1)N(C)c1nc2c(c(N[C@@H](CN3CCC[C@H](C)C3)c3cnn(C)c3)n1)C[C@H](c1cccc(F)c1)CC2 [Compound 23]; 115
CC[C@H]([C@H]1CC[C@H](C(=O)O)CC1)N(C)c1nc2c(c(N[C@@H](CN3CCC[C@H](C)C3)c3cnn(C)c3)n1)C[C@H](c1ccc(F)cc1)CC2 [Compound 14]; 97
CC[C@H]([C@H]1CC[C@H](C(=O)O)CC1)N(C)c1nc2c(c(N[C@@H](CN3C4CCCC3CC4)c3cnn(C)c3)n1)C[C@H](c1ccccc1F)CC2 [Compound 62]; 207

Param readout = AC50; param system = human NPR1 (Homo sapiens); param query = CC[C@@H](Nc1nc2c(c(N[C@@H](CN3CCCCCC3)c3cnn(C)c3)n1)C[C@H](c1ccccc1)CC2)[C@H]1CC[C@H](C(=O)O)CC1 [Compound 51] ; response: value 187

====

- assayedTarget: human NPR1 (Homo sapiens)
- Construct: host or cells: CHO-K1
- Sequence (P16066 33-1061): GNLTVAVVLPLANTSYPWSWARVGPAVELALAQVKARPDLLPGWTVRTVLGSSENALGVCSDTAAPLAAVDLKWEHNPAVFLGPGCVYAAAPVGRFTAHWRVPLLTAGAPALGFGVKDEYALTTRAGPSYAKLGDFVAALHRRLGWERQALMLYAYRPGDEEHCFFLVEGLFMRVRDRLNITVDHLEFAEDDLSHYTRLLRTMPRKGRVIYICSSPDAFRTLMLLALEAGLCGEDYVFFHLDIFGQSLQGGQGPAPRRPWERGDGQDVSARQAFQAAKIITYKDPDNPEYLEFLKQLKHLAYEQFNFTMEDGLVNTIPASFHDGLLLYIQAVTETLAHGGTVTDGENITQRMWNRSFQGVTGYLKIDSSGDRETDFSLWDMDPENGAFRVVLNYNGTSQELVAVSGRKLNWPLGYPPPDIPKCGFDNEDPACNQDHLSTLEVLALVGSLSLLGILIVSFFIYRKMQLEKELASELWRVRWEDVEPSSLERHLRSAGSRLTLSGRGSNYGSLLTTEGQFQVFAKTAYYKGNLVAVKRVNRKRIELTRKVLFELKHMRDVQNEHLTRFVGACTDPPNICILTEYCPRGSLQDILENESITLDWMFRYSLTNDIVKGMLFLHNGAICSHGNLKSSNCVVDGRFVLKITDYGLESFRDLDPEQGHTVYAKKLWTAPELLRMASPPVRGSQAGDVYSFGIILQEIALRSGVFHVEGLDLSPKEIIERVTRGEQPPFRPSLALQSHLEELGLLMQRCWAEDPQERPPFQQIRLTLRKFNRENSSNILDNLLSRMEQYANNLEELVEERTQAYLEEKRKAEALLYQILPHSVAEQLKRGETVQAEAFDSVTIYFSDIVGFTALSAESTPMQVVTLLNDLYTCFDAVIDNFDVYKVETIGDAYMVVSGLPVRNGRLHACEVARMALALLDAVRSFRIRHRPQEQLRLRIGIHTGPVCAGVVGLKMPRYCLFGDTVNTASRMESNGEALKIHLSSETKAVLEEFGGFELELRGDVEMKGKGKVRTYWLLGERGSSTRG
- protocolDescription: Cellular cGMP production assay, human NPR1 expressing CHO-K1 cells (CisBio HTRF)
- Assay type: cell-based
- measurementParameters: cGMP production, 30 min at 37° C., 12-point dose-response from 30 μM
assayReadout: log10 of AC50 (log10 of the value in nM)
For clarity, the numbers are log10 values of AC50 expressed in nM.

CC[C@H]([C@H]1CC[C@H](C(=O)O)CC1)N(C)c1nc2c(c(N[C@@H](CN3CCC[C@H](C)C3)c3cnn(C)c3)n1)C[C@@H](c1cccc(F)c1)CC2 [Compound 75]; 2.39
CC[C@H]([C@H]1CC[C@H](C(=O)O)CC1)N(C)c1nc2c(c(N[C@@H](CN3CCC[C@@](C)(O)C3)c3cnn(C)c3)n1)C[C@H](c1ccccc1)CC2 [Compound 182]; 2.40
CC[C@H]([C@H]1CC[C@H](C(=O)O)CC1)N(C)c1nc2c(c(N[C@@H](CN3CC4CCC3C4)c3ccccc3)n1)C[C@H](c1ccccc1)CC2 (stereo partly shown) [Compound 136]; 2.91

Look up log10 of AC50 for this compound: CC[C@@H](N(C)c1nc2c(c(N[C@@H](CN3C4CCCC3CCC4)c3cnn(C)c3)n1)C[C@H](c1ccc(F)cc1)CC2)C12CC(C(=O)O)(C1)C2 [Compound 11] 1.97

Look up log10 of AC50 for this compound: CC[C@@H](N(C)c1nc2c(c(N[C@@H](CN3C4CCCC3CCC4)c3cnn(C)c3)n1)C[C@](C)(c1ccccc1)CC2)C12CC(C(=O)O)(C1)C2 [Compound 27] 2.14

Look up log10 of AC50 for this compound: CC[C@@H](Nc1nc2c(c(N[C@@H](CN3CCC(C)CC3)c3cnn(C)c3)n1)C[C@H](c1ccccc1)CC2)[C@H]1CC[C@H](C(=O)O)CC1 [Compound 121] 2.76

Look up log10 of AC50 for this compound: O=C(O)[C@H]1CC[C@H](C(CC2CC2)Nc2nc3c(c(N[C@@H](CN4CCCC4)c4ccccc4)n2)CC(c2ccccc2)CC3)CC1 (stereo partly shown) [Compound 139] 2.94

Origin of measurements: patent US12129246B1
